Data origin: ChEMBL document CHEMBL2321664

assayed-system: Phosphatidylinositol 4,5-bisphosphate 3-kinase catalytic subunit delta isoform (Homo sapiens)
Sequence (O00329 whole entry): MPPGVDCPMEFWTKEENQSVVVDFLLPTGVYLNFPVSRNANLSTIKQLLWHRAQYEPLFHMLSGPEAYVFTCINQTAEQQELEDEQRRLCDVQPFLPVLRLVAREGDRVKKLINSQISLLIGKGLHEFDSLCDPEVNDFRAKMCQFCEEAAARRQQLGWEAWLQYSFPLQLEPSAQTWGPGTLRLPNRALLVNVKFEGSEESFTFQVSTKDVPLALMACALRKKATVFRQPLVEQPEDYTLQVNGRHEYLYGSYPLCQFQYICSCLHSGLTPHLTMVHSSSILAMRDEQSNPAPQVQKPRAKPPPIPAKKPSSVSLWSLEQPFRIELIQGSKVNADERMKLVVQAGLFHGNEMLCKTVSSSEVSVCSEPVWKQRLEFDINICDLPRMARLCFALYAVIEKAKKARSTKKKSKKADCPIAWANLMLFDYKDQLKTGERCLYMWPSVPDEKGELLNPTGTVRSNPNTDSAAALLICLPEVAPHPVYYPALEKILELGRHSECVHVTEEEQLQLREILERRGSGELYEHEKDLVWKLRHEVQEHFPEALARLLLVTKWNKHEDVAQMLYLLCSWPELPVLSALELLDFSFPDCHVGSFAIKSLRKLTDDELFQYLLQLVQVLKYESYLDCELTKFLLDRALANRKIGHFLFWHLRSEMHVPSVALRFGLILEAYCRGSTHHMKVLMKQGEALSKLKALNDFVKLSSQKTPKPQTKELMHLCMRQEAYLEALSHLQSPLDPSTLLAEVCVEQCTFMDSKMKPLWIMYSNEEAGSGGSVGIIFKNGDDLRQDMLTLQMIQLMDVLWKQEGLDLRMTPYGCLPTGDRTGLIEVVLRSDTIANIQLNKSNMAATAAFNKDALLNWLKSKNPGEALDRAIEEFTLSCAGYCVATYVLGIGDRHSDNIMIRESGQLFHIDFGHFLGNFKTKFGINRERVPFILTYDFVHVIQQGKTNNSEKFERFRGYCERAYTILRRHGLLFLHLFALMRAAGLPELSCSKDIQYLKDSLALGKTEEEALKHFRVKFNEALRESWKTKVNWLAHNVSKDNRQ
protocol: Inhibition of PI3K-delta (unknown origin) assessed as decrease in ATP consumption using phosphatidylinositol bisphosphate and 10 uM ATP as substrate measured after 60 mins by luminescence assay
pIC50: −log10 of the molar value.
Consider the following partition of reported pIC50 into named classes: lower segment (below 6), middle segment (6 to below 7), upper segment (7 or more)

Reference set (3 entries):
{"columns": ["smiles", "classification"],
 "data": [
  ["CN[C@@H](C)C(=O)N1CCN(c2nc(N3CCOCC3)nc(-n3c(C(F)F)nc4ccccc43)n2)CC1", "middle segment"],
  ["CN(C)CC(=O)N1CCN(c2nc(N3CCOCC3)nc(-n3c(C(F)F)nc4ccccc43)n2)CC1", "middle segment"],
  ["N[C@H](Cc1ccccc1)C(=O)N1CCN(c2nc(N3CCOCC3)nc(-n3c(C(F)F)nc4ccccc43)n2)CC1", "lower segment"]
]}

Input: Into which bin does this molecule go? N[C@@H](Cc1ccccc1)C(=O)N1CCN(c2nc(N3CCOCC3)nc(-n3c(C(F)F)nc4ccccc43)n2)CC1
Output: lower segment

Input: Into which bin does this molecule go? C[C@H](N)C(=O)N1CCN(c2nc(N3CCOCC3)nc(-n3c(C(F)F)nc4ccccc43)n2)CC1
Output: middle segment

Input: Into which bin does this molecule go? NCCC(=O)N1CCN(c2nc(N3CCOCC3)nc(-n3c(C(F)F)nc4ccccc43)n2)CC1
Output: upper segment

Input: Into which bin does this molecule go? CC(=O)NCC(=O)N1CCN(c2nc(N3CCOCC3)nc(-n3c(C(F)F)nc4ccccc43)n2)CC1
Output: upper segment

Input: Into which bin does this molecule go? O=C([C@@H]1CCCN1)N1CCN(c2nc(N3CCOCC3)nc(-n3c(C(F)F)nc4ccccc43)n2)CC1
Output: middle segment
